Test system: Escherichia coli (K514)
Type: cell-based
Settings: agar plate, 50 nanomoles/well, 3 mm wells
Residues, ends and D or L forms follow the SMILES beside them.
ASSAY_ENDPOINT: inhibition zone diameter (number of plus signs)

MOLECULE	VALUE
CC[C@H](C)[C@H](NC(=O)[C@@H]1CCCN1C(=O)[C@H](C)NC(=O)[C@@H]1CCCN1C(=O)[C@H](CCCNC(=N)N)NC(=O)[C@@H]1CCCN1C(=O)[C@H](CCCCN)NC(=O)[C@H](CO)NC(=O)[C@@H]1CCCN1C(=O)[C@H](CCCCN)NC(=O)CN)C(=O)N[C@@H](CCCCN)C(=O)N1CCC[C@H]1C(=O)N[C@@H](CCCNC(=N)N)C(=O)N1CCC[C@H]1C(=O)N1CCC[C@H]1C(=O)N[C@@H](Cc1c[nH]cn1)C(=O)N1CCC[C@H]1C(=O)N[C@@H](CCCNC(=N)N)C(=O)N[C@@H](CC(C)C)C(=O)O [Cd 3+] (H-GKPSKPRPAPIKPRPPHPRL-OH)	+ ((+) 5-6 mm)
CC(C)C[C@H](NC(=O)[C@H](CCCNC(=N)N)NC(=O)[C@@H]1CCCN1C(=O)[C@H](Cc1c[nH]cn1)NC(=O)[C@@H]1CCCN1C(=O)[C@@H]1CCCN1C(=O)[C@H](CCCNC(=N)N)NC(=O)[C@@H]1CCCN1C(=O)[C@H](C)NC(=O)[C@@H]1CCCN1C(=O)[C@@H](NC(=O)[C@H](Cc1ccc(O)cc1)NC(=O)[C@@H](NC(=O)[C@@H]1CCCN1C(=O)[C@H](CCCNC(=N)N)NC(=O)[C@@H](N)CC(N)=O)[C@@H](C)O)C(C)C)C(=O)O [Ck A] (H-NRPTYVPAPRPPHPRL-OH)	++ ((++) 7-9 mm)
CC[C@H](C)[C@H](NC(=O)[C@@H]1CCCN1C(=O)[C@H](C)NC(=O)[C@@H]1CCCN1C(=O)[C@H](CCCNC(=N)N)NC(=O)[C@@H]1CCCN1C(=O)[C@H](CCCCN)NC(=O)[C@@H](N)CO)C(=O)N[C@@H](CCCCN)C(=O)N1CCC[C@H]1C(=O)N[C@@H](CCCNC(=N)N)C(=O)N1CCC[C@H]1C(=O)N1CCC[C@H]1C(=O)N[C@@H](Cc1c[nH]cn1)C(=O)N1CCC[C@H]1C(=O)N[C@@H](CCCNC(=N)N)C(=O)N[C@@H](CC(C)C)C(=O)O [Cd 3-] (H-SKPRPAPIKPRPPHPRL-OH)	+ ((+) 5-6 mm)
CC(C)C[C@H](NC(=O)[C@H](CCCNC(=N)N)NC(=O)[C@@H]1CCCN1C(=O)[C@H](Cc1c[nH]cn1)NC(=O)[C@@H]1CCCN1C(=O)[C@@H]1CCCN1C(=O)[C@H](CCCNC(=N)N)NC(=O)[C@@H]1CCCN1C(=O)[C@@H]1CCCN1C(=O)[C@@H](NC(=O)[C@H](CCC(N)=O)NC(=O)[C@H](CCC(N)=O)NC(=O)[C@@H]1CCCN1C(=O)[C@H](CCCNC(=N)N)NC(=O)[C@@H]1CCCN1C(=O)[C@H](CCCCN)NC(=O)[C@H](CC(N)=O)NC(=O)[C@@H](N)CO)C(C)C)C(=O)O [Yj +S] (H-SNKPRPQQVPPRPPHPRL-OH)	++ ((++) 7-9 mm)
CC[C@H](C)[C@H](NC(=O)[C@@H]1CCCN1C(=O)[C@H](C)NC(=O)[C@@H]1CCCN1C(=O)[C@H](CCCNC(=N)N)NC(=O)[C@@H]1CCCN1C(=O)[C@H](CCCCN)NC(=O)[C@@H](N)CC(N)=O)C(=O)N[C@@H](CCCCN)C(=O)N1CCC[C@H]1C(=O)N[C@@H](CCCNC(=N)N)C(=O)N1CCC[C@H]1C(=O)N1CCC[C@H]1C(=O)N[C@@H](Cc1c[nH]cn1)C(=O)N1CCC[C@H]1C(=O)N[C@@H](CCCNC(=N)N)C(=O)N[C@@H](CC(C)C)C(=O)O [Cd 2-] (H-NKPRPAPIKPRPPHPRL-OH)	++ ((++) 7-9 mm)
